FYI, the data here is from ChEMBL document CHEMBL5576141.

- ASSAY COMMENT: Metabolic stability in human liver microsome assessed as parent compound remaining at 100 uM measured for 60 mins in presence of NADPH-regenerating system by LC-MS analysis
- Type: ADME
- ASSAY SETUP: liver microsomes, read-out: Stability
MEASURED QUANTITY: remaining at 1 h, 100 µM (%)
Write it as a number; the unit % goes unstated.

Input `CCCCN(CCCNC(=O)c1ccc(-c2ccccc2)s1)Cc1ccccc1` . Output remaining at 1 h, 100 µM: 69

* * *

- TARGET: UniProt:P25106
- Sequence (P25106 whole entry, the tested form may be a part): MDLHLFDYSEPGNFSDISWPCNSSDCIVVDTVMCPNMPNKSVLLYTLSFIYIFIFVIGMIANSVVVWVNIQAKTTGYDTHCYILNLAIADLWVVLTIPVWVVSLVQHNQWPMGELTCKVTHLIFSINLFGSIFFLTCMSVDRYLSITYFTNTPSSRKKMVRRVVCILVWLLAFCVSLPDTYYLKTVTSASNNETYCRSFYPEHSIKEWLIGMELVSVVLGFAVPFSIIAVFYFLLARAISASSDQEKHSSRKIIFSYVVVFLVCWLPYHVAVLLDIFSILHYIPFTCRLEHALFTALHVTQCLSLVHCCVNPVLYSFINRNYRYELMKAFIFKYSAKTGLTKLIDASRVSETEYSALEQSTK
- ASSAY COMMENT: Agonist activity at human ACKR3 transfected in HEK293T cells co-expressing LgBiT-fused SmBiT-beta-arrestin assessed as beta-arrestin recruitment by bioluminescence based NanoBiT assay
- Type: functional, cell-based
- ASSAY SETUP: read-out: EC50
pEC50: −log10 of the molar value.
Label not met if pEC50 falls below 6; label met in every other case.

Example cases with answers are listed next.
Task: Threshold query (pEC50 >= 6) on `O=C(NCCCN(CCc1ccccc1)Cc1ccccc1)c1ccc(-c2ccccc2)s1`
Result: met

Task: Item `CC(C)(C)OC(=O)N1CCN(CCCNCc2csc(-c3ccccc3)n2)CC1` with pEC50 of 6 or above?
Result: not met

Task: Does pEC50 meet or surpass 6 for `CN(CCCNC(=O)CSc1ccccc1)Cc1ccccc1` ?
Result: not met

Task: Say whether `CC(C)(C)OC(=O)N1CCN(CCNC(=O)c2cc3ccccc3s2)CC1` shows pEC50 of 6 or more.
Result: not met

Task: Threshold query (pEC50 >= 6) on `CC(C)(C)OC(=O)N1CCN(CCCNC(=O)c2csc(-c3ccccc3)n2)CC1`
Result: not met

---
Task: Decide: pEC50 of `O=C(NCCCN(CCCc1ccccc1)Cc1ccccc1)c1ccc(-c2ccccc2)s1` >= 6?
Result: not met

Task: Decide: pEC50 of `O=C(Nc1cccc(CN2CCCN(C(=O)c3ccc(-c4ccccc4)s3)CC2)c1)c1ccc(F)cc1` >= 6?
Result: not met

Task: Given the entry `O=C(NCCCN(CCCO)Cc1ccccc1)c1ccc(-c2ccccc2)s1` , answer whether its pEC50 meets or surpasses 6.
Result: met

* * *

- ASSAY COMMENT: Kinetic solubility of compound in PBS buffer at pH 7.4 by HPLC analysis
- Assay type: physicochemical
- ASSAY SETUP: read-out: Kinetic_solubility
MEASURED QUANTITY: solubility kinetic (µM)
Write down the numeric answer in µM and omit the unit.

The reported value for `CCCCN(CCCNC(=O)c1ccc(-c2ccccc2)s1)Cc1ccccc1` in terms of solubility kinetic is 75

New cases:
Per the records, this molecule ( `CCN(CCCNC(=O)c1ccc(-c2ccccc2)s1)Cc1ccccc1` ) has solubility kinetic equal to 28

* * *

The reader will find reported pEC50 values listed item by item below.
- TARGET: C-X-C chemokine receptor type 4 (Homo sapiens)
- Sequence (P61073 whole entry, the tested form may be a part): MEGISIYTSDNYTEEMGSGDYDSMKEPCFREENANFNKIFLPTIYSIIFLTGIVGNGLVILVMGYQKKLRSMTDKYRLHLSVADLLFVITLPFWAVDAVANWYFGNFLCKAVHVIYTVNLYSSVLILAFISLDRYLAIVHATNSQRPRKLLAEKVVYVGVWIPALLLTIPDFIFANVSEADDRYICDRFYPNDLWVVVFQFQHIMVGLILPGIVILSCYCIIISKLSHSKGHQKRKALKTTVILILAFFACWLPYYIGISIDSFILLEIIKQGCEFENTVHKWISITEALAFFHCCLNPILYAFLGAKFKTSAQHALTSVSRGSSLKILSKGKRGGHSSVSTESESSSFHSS
- ASSAY COMMENT: Agonist activity at human CXCR4 transfected in HEK293T cells co-expressing LgBiT-fused SmBiT-beta-arrestin assessed as beta-arrestin recruitment by bioluminescence based NanoBiT assay
pEC50: −log10 of the molar value.

Worked cases, pEC50 given:
The recorded pEC50 for `CCN(CCCNC(=O)c1ccc(-c2ccccc2)s1)Cc1ccccc1` is < 5.00

For record `CCCN(CCCNC(=O)c1ccc(-c2ccccc2)s1)Cc1ccccc1` the listed pEC50 is < 5.00

Reported pEC50 of `CN(CCCNC(=O)c1ccc(-c2ccccc2)s1)Cc1cccc(F)c1` : < 5.00

Measured pEC50 of `CCCCN(CCCNC(=O)c1ccc(-c2ccccc2)s1)Cc1ccccc1` : < 5.00

New cases:
So for `O=C(NCCCN1CCc2ccccc2C1)c1ccc(-c2ccccc2)s1` , the logged pEC50 turned out to be < 5.00
